Value source: patent US8030354B2

target: UniProt O14842; test: Cell-based aequorin assay (CHO cells stably expressing GPR40 and aequorin); set-up: expressed in transfected cells; host or cells: CHO cells stably transfected with GPR40 and aequorin; conditions: activation of human GPR40, CHO cells, 0.01% HSA
Sequence (O14842 whole entry): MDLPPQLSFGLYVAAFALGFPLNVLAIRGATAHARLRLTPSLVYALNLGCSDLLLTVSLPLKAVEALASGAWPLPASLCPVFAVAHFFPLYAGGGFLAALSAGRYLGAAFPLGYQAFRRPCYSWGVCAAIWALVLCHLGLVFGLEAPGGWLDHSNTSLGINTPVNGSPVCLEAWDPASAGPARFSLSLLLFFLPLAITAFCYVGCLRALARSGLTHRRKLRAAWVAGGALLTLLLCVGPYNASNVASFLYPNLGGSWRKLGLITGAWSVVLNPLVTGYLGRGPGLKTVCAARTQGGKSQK
METRIC_NAME: EC50

The following molecules have reported results that may help.
COc1ccc(F)c(-c2cc(F)c(COc3cccc([C@@H](CC(=O)O)C4CC4)c3)cc2[C@H]2CCCC2(C)C)c1 (single isomer, unassigned); 10 to 100 nM
CC1(C)CCC[C@H]1c1cc(COc2cccc([C@@H](CC(=O)O)C3CC3)c2)ccc1-c1cc(C(F)F)ccc1F (single isomer, unassigned); 1000 to 10000 nM
COc1ccc(F)c(-c2ccc(COc3cccc([C@H](CC(=O)O)C4CC4)c3)cc2C2=CCCC2(C)C)c1 (single isomer, unassigned); 1000 to 10000 nM

Entry COc1ccc(F)c(-c2ccc(COc3cc(F)cc(C(CC(=O)O)CC4CC4)c3)cc2C2CCCC2(C)C)c1 (single isomer, unassigned) : reported EC50 = ?
10 to 100 nM

Next molecule up: COc1ccc(F)c(-c2ccc(COc3cccc(C(CC(=O)O)C4CCC4)c3)cc2C2=CCCC2(C)C)c1 (single isomer, unassigned)
100 to 1000 nM

Next molecule up: COc1ccc(F)c(-c2ccc(COc3cccc(C(C)CC(=O)O)c3)cc2C2CCC(C)(C)CC2)c1 (single isomer, unassigned)
100 to 1000 nM

Next molecule up: CCC(CC(=O)O)c1cccc(OCc2ccc(-c3cc(OC)ccc3F)c(C3CCCC3(C)C)c2)c1F (single isomer, unassigned) [Example 77.3]
100 to 1000 nM

Next molecule up: COc1ccc(F)c(-c2ccc(COc3cccc([C@H](C)CC(=O)O)c3)cc2OCc2ccccc2)c1 (single isomer, unassigned)
1000 to 10000 nM
